meta.source: a melting point compilation (Tetko et al.; mined from patent text by program, amines drawn as free bases though some values may be those of a salt)

We begin with a simple list: items and their reported melting point.
readoutType: melting point

>>> print(df.to_string())
                                   molecule   readoutvalue
0  Cc1oc(-c2ccccc2)nc1COc1ccc(COc2ncccc2CO)cc1  139 to 140 °C
1  CS(=O)(=O)c1ccc(C(CC2CCCC2)C(=O)Nc2nccs2)cc1C(F)(F)F (stereo not given)  117 to 121 °C
2  O=c1c2ccc(-c3nnn[nH]3)cc2oc2ccc(-c3nnn[nH]3)cc12       > 400 °C
3  CCCC1CC1(C(=O)Nc1ccc(Br)cc1C)C(=O)OC (stereo not given)          60 °C
4  COc1cc(C(F)(F)F)nn1-c1ccc(NC(=O)c2snnc2C)cc1  159 to 160 °C
